Every entry's value here was drawn from paper PMC11621838.

# TESTED TARGET: TAS2R5 (Homo sapiens, UniProt Q9NYW4)
# Sequence (Q9NYW4 1-299): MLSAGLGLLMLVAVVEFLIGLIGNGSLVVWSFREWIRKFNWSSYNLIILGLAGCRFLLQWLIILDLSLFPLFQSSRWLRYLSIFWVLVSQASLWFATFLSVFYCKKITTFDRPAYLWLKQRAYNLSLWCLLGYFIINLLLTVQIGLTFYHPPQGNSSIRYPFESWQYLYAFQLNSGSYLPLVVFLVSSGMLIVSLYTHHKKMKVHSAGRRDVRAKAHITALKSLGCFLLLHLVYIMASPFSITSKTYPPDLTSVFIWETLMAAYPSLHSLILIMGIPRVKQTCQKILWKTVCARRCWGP
# MEASUREMENT CONDITIONS: EC50, D9 cells, Fluo-4, [Ca2+]i; mean ± SE of 7 to 10 experiments
RECORDED METRIC: EC50

>  <SMILES NOTATION>
c1cnc2c(c1)ccc1cccnc12

>  <TESTED TARGET>
TAS2R5 (Homo sapiens, UniProt Q9NYW4)

>  <RECORDED METRIC>
EC50

>  <RESULT>
23.1 µM

$$$$

---

# TESTED TARGET: UniProtKB Q9NYW4
# Sequence (Q9NYW4 1-299): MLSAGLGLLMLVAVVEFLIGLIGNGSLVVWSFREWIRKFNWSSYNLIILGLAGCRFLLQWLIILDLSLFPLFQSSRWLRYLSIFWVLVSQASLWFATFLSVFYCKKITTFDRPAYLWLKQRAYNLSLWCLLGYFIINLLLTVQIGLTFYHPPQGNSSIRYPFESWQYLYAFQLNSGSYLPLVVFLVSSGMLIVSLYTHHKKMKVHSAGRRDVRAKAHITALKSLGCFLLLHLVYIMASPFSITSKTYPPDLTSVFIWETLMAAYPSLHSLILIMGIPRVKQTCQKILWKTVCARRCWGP
RECORDED METRIC: Kd (µM)

>  <SMILES NOTATION>
c1cnc2c(c1)ccc1cccnc12

>  <QUANTITATIVE READOUT>
13

$$$$
